system: OVCAR-4 ovarian; experiment: NCI tumour cell line growth inhibition, 48 h; in the data active means GI50 below about 0.43 µM; inactive means the rest
Outcomes: active, inactive

C[C@@H]1CN2[C@H]3[C@@H]1CC[C@]31CCC(=O)O[C@]1(C)[C@H]1CC[C@H]3CCC=C3[C@@H]12; inactive
Cc1cc(I)cc(CNCCN(C)C)c1O; inactive
CCOc1ccc(N(C)c2ccc(/C=C/C3=[N+](C)c4ccccc4C3(C)C)cc2)cc1; active
COc1ccc(-c2nc3sc(-c4cc(OC)c(OC)c(OC)c4)nn3c2/C=C2/C(=O)Nc3ccc(F)cc32)cc1; inactive
COc1cc(/C=C2\CC3C4CC=C5CC(OC(C)=O)CC[C@]5(C)C4CC[C@]3(C)C2=O)ccc1OCCN1CCCC1 (stereo partly specified); inactive
C=CCc1cccc(C=O)c1O; inactive
CC(C)=CCC/C(C)=C/CC/C(C)=C/CSC[C@H](NC(=O)CCCCCN1CCN(C)CC1)C(=O)NC1CCCCCC1; inactive
CN(C)CCC(N)(P(=O)([O-])[O-])P(=O)([O-])[O-].N.N.[Pt+2]; inactive
CN1C(=O)C(c2c[nH]c3ccccc23)=C(c2c[nH]c3ccccc23)C1=O; inactive
CN(C)CCNC(=O)c1cc2c3cc(Cl)ccc3[nH]c2c2ncccc12; inactive
Sc1cccc2cccnc12; inactive
Nc1c(C(=O)Nc2cccc(Cl)c2)sc2nc3c(cc12)C(=O)CCC3; inactive
Nc1ccc(/C=C/c2ccc3ncccc3c2)cc1; inactive
COC(=O)c1c2c(c(C)[n+]([O-])c1C)C(=O)C(NCc1ccc(OC)cc1)=CC2=O; inactive
C=CCC1(O)c2ccccc2C(=O)c2c(OCC(=O)OCC)ccc(OCC(=O)OCC)c21 (stereo unspecified); inactive
COC(=O)[C@@H](C)C[C@H](Cc1ccccc1)NC(=O)c1nc([C@@H](C[C@H](C(C)C)N(C)C(=O)[C@@H](NC(=O)[C@H]2C[C@H](O)CCN2C)C(C)C)OC(C)=O)sc1C(C)C; active

----------
system: SN12C renal; assay: NCI tumour cell line growth inhibition, 48 h; in the data active = GI50 below about 0.43 µM; inactive = the rest
Outcomes: active, inactive

Nc1ccc(/C=C/c2ccc3ncccc3c2)cc1; inactive
CCN1CCN(CCC(=O)Nc2cccc(-n3cc(-c4ccncc4)c(-c4ccc(Cl)c(OC)c4)n3)c2)CC1; inactive
O=c1nc2n(-c3cccc(Cl)c3)c3ccc([N+](=O)[O-])cc3cc-2c(=O)[nH]1; inactive
CN1CCN(Cc2ccc(NC(=O)c3cncc(C#Cc4cnc(N)c5ncccc45)c3)cc2C(F)(F)F)CC1; active
C[C@@H]1CN2[C@H]3[C@@H]1CC[C@]31CCC(=O)O[C@]1(C)[C@H]1CC[C@H]3CCC=C3[C@@H]12; inactive
CCN(Cc1ccc(OC)cc1)c1ccc(CO)c(Cl)c1; inactive
O=C1NC(=O)C(c2c[nH]c3ccccc23)=C1c1c[nH]c2ccccc12; inactive
COc1cc(/C=C/C(=O)c2cccc(-n3cc(-c4ccccc4)[nH]c3=O)c2)cc(OC)c1OC; inactive
COC(=O)[C@@H](C)C[C@H](Cc1ccccc1)NC(=O)c1nc([C@@H](C[C@H](C(C)C)N(C)C(=O)[C@@H](NC(=O)[C@H]2C[C@H](O)CCN2C)C(C)C)OC(C)=O)sc1C(C)C; active
CNC(=O)Oc1cc(C(C)C)ccc1Sc1ccc(C(C)C)cc1OC(=O)NC; inactive
CN(C)CCNC(=O)c1cc2c3cc(Cl)ccc3[nH]c2c2ncccc12; inactive
COC(=O)N[C@H]1CCc2cc(OC)c(OC)c(OC)c2-c2ccc(SC)c(=O)cc21; active
CCC(=C(c1ccc(OCCN2CCCCC2)cc1)c1ccc(OCCN2CCCCC2)cc1)c1ccc(Cl)cc1; inactive
Nc1c(C(=O)Nc2cccc(Cl)c2)sc2nc3c(cc12)C(=O)CCC3; inactive
COC(=O)c1cc2ccc(O)c(O)c2cn1; inactive
C=CCC1(O)c2ccccc2C(=O)c2c(OCC(=O)OCC)ccc(OCC(=O)OCC)c21 (stereo not drawn); inactive
NS(=O)(=O)c1ccc(N(/C=C/C(=O)C(F)(F)F)CC(=O)c2ccc(F)cc2)cc1; inactive
COc1cc2cc(NCc3cccc(Cl)c3)nc(C)c2cc1OC; inactive

----------
tested on: SK-MEL-2 melanoma; experiment: NCI tumour cell line growth inhibition, 48 h
// TGI lookup, one value per entry
reported endpoint: TGI (µM)

Cc1c2cnccc2c(C)c2c1c1ccccc1n2CCOC(=O)c1ccccc1; 31.8
O=C(CCCc1ccc(N(CCCl)CCCl)cc1)NCc1ccccc1; 55

----------
// TGI lookup, one value per entry
system: SK-MEL-2 melanoma; assay: NCI tumour cell line growth inhibition, 48 h
reported endpoint: TGI (µM)

N#Cc1cc2c(cc1C#N)SCCSCCCSCCS2; 42.8
Brc1ccc(C2=NCSC(c3ccc(Br)cc3)=N2)cc1; 32.5
CC(C)=CCc1cc2c(cc1O)C1=C(C(=O)C3=C(NCCS3(=O)=O)C1=O)C(C=C(C)C)O2 (stereo not given); 15
O=C(O)c1ccc(N(/C=C/C(=O)C(F)(F)F)Cc2ccc(Cl)cc2)cc1; 53.3
COC(=O)C(Cc1ccccc1)NC(=O)CSc1nnc(COc2ccc(Cl)cc2)n1-c1ccccc1 (stereo not given); 33.2
CN(C)CCNC(=O)c1cc2c3cc(Cl)ccc3[nH]c2c2ncccc12; 20.1

----------
tested on: HOP-62 NSCLC; experiment: NCI tumour cell line growth inhibition, 48 h
reported endpoint: GI50

O=[N+]([O-])c1ccc(C2=NCCO2)cc1; > 100 µM
O=c1[nH]c2ccccc2n1C1CCNCC1; > 100 µM
COc1ccc(-c2nc3sc(-c4cc(OC)c(OC)c(OC)c4)nn3c2/C=C2/C(=O)Nc3ccc(F)cc32)cc1; 1.94 µM
COc1ccc(C2=NN(C(N)=S)C(c3ccc4c(c3)OCO4)C2)cc1 (stereo unspecified); 3.56 µM
CCN(Cc1ccc(OC)cc1)c1ccc(CO)c(Cl)c1; 2.05 µM
Cn1cc(C2=C(c3ccsc3)C(=O)NC2=O)c2ccccc21; > 25 µM

----------
// log10(TGI) lookup, one value per entry
test system: MALME-3M melanoma; experiment: NCI tumour cell line growth inhibition, 48 h
reported endpoint: log10(TGI) (log10 of the value in µM)

CNC(=O)Oc1cc(C(C)C)ccc1Sc1ccc(C(C)C)cc1OC(=O)NC; 1.31
Cc1ccc(N)c(S)c1; 1.92
COc1cccc2c1nc(C(F)F)n2-c1nc(-c2ccc(NS(=O)(=O)CCN(C)C)cc2)nc(N2CCOCC2)n1; -0.50
NS(=O)(=O)c1ccc(NC(=S)NC(=O)Nc2ccc(Cl)c(Cl)c2)cc1; 1.53
COc1cc2nc(-c3cccs3)nc(Nc3cccc([N+](=O)[O-])c3)c2cc1OC; 1.55
CC(C)=CCC/C(C)=C/CC/C(C)=C/CSC[C@H](NC(=O)CCCCCN1CCN(C)CC1)C(=O)NC1CCCCCC1; 0.55
CCOc1ccc(N(C)c2ccc(/C=C/C3=[N+](C)c4ccccc4C3(C)C)cc2)cc1; -0.07
CN1CCN(Cc2ccc(NC(=O)c3cncc(C#Cc4cnc(N)c5ncccc45)c3)cc2C(F)(F)F)CC1; -0.22
CC1=C(O)C(=O)C=C2C1=CC=C1[C@@]2(C)CC[C@@]2(C)C3C[C@@H](C)C(=O)[C@@H](O)[C@]3(C)CC[C@]12C (stereo partly drawn); 0.60

----------
// TGI lookup, one value per entry
tested on: SF-295 CNS; test: NCI tumour cell line growth inhibition, 48 h
reported endpoint: TGI

O=[N+]([O-])c1ccc(C2=NCCO2)cc1; > 100 µM
N=C(N)SCc1ccc2c(c1)S(=O)(=O)c1ccccc1O2; 56.8 µM
C/C(CN1C(=O)c2ccccc2C1=O)=N\NS(=O)(=O)c1ccc2ccccc2c1; > 100 µM
COC(=O)/C=C1\SC2(OC1=Nc1ccccc1)C1CC3CC(C1)CC2C3 (stereo not given); > 100 µM
NC(N)NCCCc1cn2c(n1)C1CCCN1C(=O)C2Cc1ccccc1 (stereo not given); > 100 µM
C=CCN1C(=O)CC2[C@@H]3CCc4cc(O)ccc4C3CC[C@]2(C)C1=O (stereo not given in full); > 10 µM
CN1C(=O)C(c2c[nH]c3ccccc23)=C(c2c[nH]c3ccccc23)C1=O; 11.8 µM
C/C(=N/NC(=O)c1ccncc1)C(F)(F)F; > 100 µM
CCOC(=O)c1nc2ccccc2nc1Oc1cc(OC)cc(OC)c1; > 100 µM
COc1ccc(-c2nc3sc(-c4cc(OC)c(OC)c(OC)c4)nn3c2/C=C2/C(=O)Nc3ccc(F)cc32)cc1; 10.8 µM

----------
tested on: U251 CNS
reported endpoint: GI50

N#CC1=C(N)Oc2c(sc3c(Br)cccc23)C1c1ccc([N+](=O)[O-])cc1 (centres undefined); 0.151 µM
CCN1CCN(CCC(=O)Nc2cccc(-n3cc(-c4ccncc4)c(-c4ccc(Cl)c(OC)c4)n3)c2)CC1; 0.484 µM
C/C(=C\C(=O)O[C@H]1[C@@H]2[C@H](C)CC[C@H]2[C@]2(C)O[C@@]1(C1CCCCC1)C[C@H]2OC(=O)CO)c1ccccc1; 6.02 µM
COc1cc2cc(NCc3cccc(Cl)c3)nc(C)c2cc1OC; 2.4 µM
C=CCC1(O)c2ccccc2C(=O)c2c(OCC(=O)OCC)ccc(OCC(=O)OCC)c21 (centres undefined); 81 µM
CCOc1ccc(N(C)c2ccc(/C=C/C3=[N+](C)c4ccccc4C3(C)C)cc2)cc1; 0.122 µM
COc1cccc2c1nc(C(F)F)n2-c1nc(-c2ccc(NS(=O)(=O)CCN(C)C)cc2)nc(N2CCOCC2)n1; 0.454 µM
CC1=C(CCCOC(=O)[C@H](N)CC(C)C)C2=C(C)C3(CC3)[C@@](C)(O)C(=O)C2=C1; 2.53 µM
Cc1cc(I)cc(CNCCN(C)C)c1O; 73.5 µM
